In this section, each of the binders is paired with its reported sPAP HepG2 B6 assay: Mean % of wild type EC50.
Biological target: T1, gp130 on HepG2 B6 cells (UniProt P40189 23-918, limits assumed)
T1 sequence (looked up): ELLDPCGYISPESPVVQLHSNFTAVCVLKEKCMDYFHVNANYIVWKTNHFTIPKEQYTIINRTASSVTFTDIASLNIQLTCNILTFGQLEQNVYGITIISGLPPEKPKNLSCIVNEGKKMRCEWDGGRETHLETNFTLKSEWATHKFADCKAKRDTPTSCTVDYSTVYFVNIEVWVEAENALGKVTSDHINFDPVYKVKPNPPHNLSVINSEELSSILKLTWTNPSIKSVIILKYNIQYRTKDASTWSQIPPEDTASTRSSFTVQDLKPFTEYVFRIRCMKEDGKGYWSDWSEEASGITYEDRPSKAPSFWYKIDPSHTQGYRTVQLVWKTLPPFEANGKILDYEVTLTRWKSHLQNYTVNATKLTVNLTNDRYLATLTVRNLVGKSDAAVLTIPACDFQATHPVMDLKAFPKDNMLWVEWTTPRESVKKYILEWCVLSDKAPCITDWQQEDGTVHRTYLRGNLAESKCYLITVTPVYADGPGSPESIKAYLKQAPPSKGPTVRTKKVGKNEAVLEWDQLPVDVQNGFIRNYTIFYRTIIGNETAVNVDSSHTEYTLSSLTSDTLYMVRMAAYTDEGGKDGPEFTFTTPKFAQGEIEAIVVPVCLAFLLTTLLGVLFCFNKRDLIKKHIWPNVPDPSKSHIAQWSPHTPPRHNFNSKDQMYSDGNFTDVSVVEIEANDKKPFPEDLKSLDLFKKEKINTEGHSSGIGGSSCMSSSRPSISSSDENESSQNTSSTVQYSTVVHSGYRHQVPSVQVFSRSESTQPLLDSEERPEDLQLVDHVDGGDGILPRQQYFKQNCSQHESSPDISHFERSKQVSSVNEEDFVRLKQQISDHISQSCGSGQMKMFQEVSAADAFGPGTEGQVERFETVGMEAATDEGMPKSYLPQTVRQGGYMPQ
Assay: cell-based or functional assay
Express your answer in %, writing the number without its unit.

binder="OSM-GST mutant Q18A (ligand, Alanine mutant of m4; also called (11)Q18A; 11 Q18A; not shown: Its linker is left out) AAIGSCSKEYRVLLGQLAKQTDLMQDTSRLLDPYIRIQGLDVPKLREHCRERPGAFPSEETLRGLGRRGFLQTLNATLGCVLHRLADLEQRLPKAQDLERSGLNIEDLEKLQMARPNILGLRNNIYCMAQLLDNSDTAEPTKAGRGASQPPTPTPASDAFQRKLEGCRFLHGYHRFMHSVGRVFSKWGESPNRSRR" measured=76
binder="OSM-GST mutant D26A (ligand, not shown: a dimerising Fc or GST; large carriers; small tags and cut ends, Alanine mutant of m4; also called (27)D26A; 27 D26A) AAIGSCSKEYRVLLGQLQKQTDLMQATSRLLDPYIRIQGLDVPKLREHCRERPGAFPSEETLRGLGRRGFLQTLNATLGCVLHRLADLEQRLPKAQDLERSGLNIEDLEKLQMARPNILGLRNNIYCMAQLLDNSDTAEPTKAGRGASQPPTPTPASDAFQRKLEGCRFLHGYHRFMHSVGRVFSKWGESPNRSRR" measured=80
binder="OSM-GST mutant E9A (ligand, not shown: a dimerising Fc or GST; large carriers; small tags and cut ends, Alanine mutant of m4; also called (3)E9A; 3 E9A) AAIGSCSKAYRVLLGQLQKQTDLMQDTSRLLDPYIRIQGLDVPKLREHCRERPGAFPSEETLRGLGRRGFLQTLNATLGCVLHRLADLEQRLPKAQDLERSGLNIEDLEKLQMARPNILGLRNNIYCMAQLLDNSDTAEPTKAGRGASQPPTPTPASDAFQRKLEGCRFLHGYHRFMHSVGRVFSKWGESPNRSRR" measured=62.5

// next item, sPAP HepG2 B6 assay: Mean % of wild type EC50 requested
-- ask Consider the binder OSM-GST mutant L13A (ligand, Alanine mutant of m4; also called (6)L13A; 6 L13A; not shown: Its linker is left out) AAIGSCSKEYRVALGQLQKQTDLMQDTSRLLDPYIRIQGLDVPKLREHCRERPGAFPSEETLRGLGRRGFLQTLNATLGCVLHRLADLEQRLPKAQDLERSGLNIEDLEKLQMARPNILGLRNNIYCMAQLLDNSDTAEPTKAGRGASQPPTPTPASDAFQRKLEGCRFLHGYHRFMHSVGRVFSKWGESPNRSRR and give its measured sPAP HepG2 B6 assay: Mean % of wild type EC50.
-- reply 220

// data source = patent US6706266
